B1: Zinc finger homeobox protein 3, residues 2147 to 2202; numbered along this chain, Q15911 (parent)
chain: RPRTRITDDQLRVLRQYFDINNSPSEEQIKEMADKSGLPQKVIKHWFRNTLFKERQ

- Variants of: B1
- Experimental Details: abundance fitness (aPCA) (normalised: wild type 0, dead -1); higher = more abundant; growth selection in yeast, the domain comes from the species named
- Condition Set: Homo sapiens
Entry flag: t if abundance fitness reaches -0.2; f if it does not.

Given P24Y , state whether its abundance fitness is at least -0.2.
f

Given T50I , state whether its abundance fitness is at least -0.2.
f

Given L14G , state whether its abundance fitness is at least -0.2.
f

Given N22P , state whether its abundance fitness is at least -0.2.
t

Given V42C , state whether its abundance fitness is at least -0.2.
t

Given P2A , state whether its abundance fitness is at least -0.2.
t

Given T7K , state whether its abundance fitness is at least -0.2.
f

Given N49C , state whether its abundance fitness is at least -0.2.
t

Given A33H , state whether its abundance fitness is at least -0.2.
t

Given Y17S , state whether its abundance fitness is at least -0.2.
f

Given Q16L , state whether its abundance fitness is at least -0.2.
t

Given K44S , state whether its abundance fitness is at least -0.2.
f
